These data points were gathered from patent US20160143913A1.

Tested on: MV522
Assay: Cell growth inhibition assay (Cell Titer Glo), MV522
Assay type: cell-based
Conditions: Homo sapiens, 72 h; MV522 lung; BRAF_V600E; PIK3CA/PTEN WT; single agent, 3 days, mean ± std
Procedure: Human breast tumor line, MDA-MB-175-VII, human colon tumor lines, Colo-205, DLD-1, HCT-8, HT-29, LS-1034, NCI-H508, RKO, SW1417, SW1463, SW480, SW837 and T84, and human lung tumor lines, A427, A549, Calu 3, Calu 6, HCC827, NCI-H1155, NCI-H1355, NCI-H1792, NCI-H23, NCI-H727, SW1573 and SW900 were from ATCC. […] All cells were cultured for a minimum of 72 hours prior to cell plating. […] ATP levels were determined by adding Cell Titer Glo® (Promega) according to the manufacturer's protocol. […]
quantityName: pIC50
Field pIC50 (float): negative decimal logarithm of the concentration in molar.

Please give the measured pIC50 for this compound: CC(=O)Nc1cccc(-n2c(=O)n(C3CC3)c(=O)c3c(Nc4ccc(I)cc4F)n(C)c(=O)c(C)c32)c1
8.70
